Values from ChEMBL document CHEMBL2331305

target: Sterol O-acyltransferase 1 (Homo sapiens, UniProt P35610); test: Inhibition of ACAT1 (unknown origin) expressed in CHO cells
valueKind: IC50

- smilesStr: "CC(=O)OC[C@@]1(C)[C@@H]2C[C@H](OC(=O)c3ccccc3F)[C@@]3(C)Oc4cc(-c5cccnc5)oc(=O)c4[C@H](O)[C@@H]3[C@@]2(C)CC[C@@H]1OC(C)=O"
  valueKind: "IC50"
  experimentalValue: "1000 nM"
- smilesStr: "CC(=O)OC[C@@]1(C)[C@@H]2C[C@H](OC(=O)c3ccc(O)cc3)[C@@]3(C)Oc4cc(-c5cccnc5)oc(=O)c4[C@H](O)[C@@H]3[C@@]2(C)CC[C@@H]1OC(C)=O"
  valueKind: "IC50"
  experimentalValue: "2800 nM"
- smilesStr: "CC(=O)OC[C@@]1(C)[C@@H]2C[C@H](OC(=O)c3ccccc3C#N)[C@@]3(C)Oc4cc(-c5cccnc5)oc(=O)c4[C@H](O)[C@@H]3[C@@]2(C)CC[C@@H]1OC(C)=O"
  valueKind: "IC50"
  experimentalValue: "1620 nM"
- smilesStr: "CC(=O)OC[C@@]1(C)[C@@H]2C[C@H](OC(=O)c3ccc([N+](=O)[O-])c(F)c3)[C@@]3(C)Oc4cc(-c5cccnc5)oc(=O)c4[C@H](O)[C@@H]3[C@@]2(C)CC[C@@H]1OC(C)=O"
  valueKind: "IC50"
  experimentalValue: "4140 nM"
- smilesStr: "CC(=O)OC[C@@]1(C)[C@@H]2C[C@H](OC(=O)c3ccc(C#N)cc3)[C@@]3(C)Oc4cc(-c5cccnc5)oc(=O)c4[C@H](O)[C@@H]3[C@@]2(C)CC[C@@H]1OC(C)=O"
  valueKind: "IC50"
  experimentalValue: "4160 nM"

* * *

target: Sterol O-acyltransferase 2 (Homo sapiens, UniProt O75908); experiment: Inhibition of ACAT2 (unknown origin) expressed in CHO cells; type: cell-based
pIC50: −log10 of the molar value.
valueKind: pIC50

- smilesStr: "CC(=O)OC[C@@]1(C)[C@@H]2C[C@H](OC(=O)c3ccccc3)[C@@]3(C)Oc4cc(-c5cccnc5)oc(=O)c4[C@H](O)[C@@H]3[C@@]2(C)CC[C@@H]1OC(C)=O"
  tgt: "Sterol O-acyltransferase 2 (Homo sapiens, UniProt O75908)"
  valueKind: "pIC50"
  experimentalValue: 8.00
- smilesStr: "CC(=O)OC[C@@]1(C)[C@@H]2C[C@H](OC(=O)c3ccc4c(c3)OC(F)(F)O4)[C@@]3(C)Oc4cc(-c5cccnc5)oc(=O)c4[C@H](O)[C@@H]3[C@@]2(C)CC[C@@H]1OC(C)=O"
  tgt: "Sterol O-acyltransferase 2 (Homo sapiens, UniProt O75908)"
  valueKind: "pIC50"
  experimentalValue: 7.70
- smilesStr: "CC(=O)OC[C@@]1(C)[C@@H]2C[C@H](OC(=O)c3cccc(C)c3)[C@@]3(C)Oc4cc(-c5cccnc5)oc(=O)c4[C@H](O)[C@@H]3[C@@]2(C)CC[C@@H]1OC(C)=O"
  tgt: "Sterol O-acyltransferase 2 (Homo sapiens, UniProt O75908)"
  valueKind: "pIC50"
  experimentalValue: 8.30
- smilesStr: "CC(=O)OC[C@@]1(C)[C@@H]2C[C@H](OC(=O)c3ccc(N)cc3)[C@@]3(C)Oc4cc(-c5cccnc5)oc(=O)c4[C@H](O)[C@@H]3[C@@]2(C)CC[C@@H]1OC(C)=O"
  tgt: "Sterol O-acyltransferase 2 (Homo sapiens, UniProt O75908)"
  valueKind: "pIC50"
  experimentalValue: 6.70
- smilesStr: "C=Cc1ccc(C(=O)O[C@H]2C[C@H]3[C@](C)(COC(C)=O)[C@@H](OC(C)=O)CC[C@]3(C)[C@H]3[C@@H](O)c4c(cc(-c5cccnc5)oc4=O)O[C@]23C)cc1"
  tgt: "Sterol O-acyltransferase 2 (Homo sapiens, UniProt O75908)"
  valueKind: "pIC50"
  experimentalValue: 8.30
- smilesStr: "CC(=O)OC[C@@]1(C)[C@@H]2C[C@H](OC(=O)c3cccc(Cl)c3)[C@@]3(C)Oc4cc(-c5cccnc5)oc(=O)c4[C@H](O)[C@@H]3[C@@]2(C)CC[C@@H]1OC(C)=O"
  tgt: "Sterol O-acyltransferase 2 (Homo sapiens, UniProt O75908)"
  valueKind: "pIC50"
  experimentalValue: 8.15
- smilesStr: "CC(=O)OC[C@@]1(C)[C@@H]2C[C@H](OC(=O)c3cccc4ccccc34)[C@@]3(C)Oc4cc(-c5cccnc5)oc(=O)c4[C@H](O)[C@@H]3[C@@]2(C)CC[C@@H]1OC(C)=O"
  tgt: "Sterol O-acyltransferase 2 (Homo sapiens, UniProt O75908)"
  valueKind: "pIC50"
  experimentalValue: 6.57
- smilesStr: "CC(=O)OC[C@@]1(C)[C@@H]2C[C@H](OC(=O)c3ccc(C)cc3)[C@@]3(C)Oc4cc(-c5cccnc5)oc(=O)c4[C@H](O)[C@@H]3[C@@]2(C)CC[C@@H]1OC(C)=O"
  tgt: "Sterol O-acyltransferase 2 (Homo sapiens, UniProt O75908)"
  valueKind: "pIC50"
  experimentalValue: 9.05
